- measured.target: UniProtKB P0DMS8
- Sequence (P0DMS8 whole entry): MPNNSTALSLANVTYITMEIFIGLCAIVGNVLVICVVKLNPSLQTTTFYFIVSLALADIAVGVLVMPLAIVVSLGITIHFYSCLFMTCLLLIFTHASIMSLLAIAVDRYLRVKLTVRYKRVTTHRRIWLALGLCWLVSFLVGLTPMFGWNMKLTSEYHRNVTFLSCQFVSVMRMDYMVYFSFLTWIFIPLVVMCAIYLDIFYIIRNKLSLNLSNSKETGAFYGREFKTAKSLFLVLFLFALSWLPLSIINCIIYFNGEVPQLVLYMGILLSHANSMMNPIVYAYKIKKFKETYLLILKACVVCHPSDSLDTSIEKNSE
- method.summary: Displacement of [3H]MRE3008-F20 from human adenosine A3 receptor expressed in CHO cells; range 50-61
- Format: cell-based

entry.smiles | unit.of.measure | Ki
CC(C)=CCn1cc2c(nc(NC(=O)Nc3cccc(Cl)c3)n3nc(-c4ccco4)nc23)n1 | µM | 0.055
